target: Thioredoxin reductase 1, cytoplasmic (Rattus norvegicus); experiment: qHTS Assay for Inhibitors of Mammalian Selenoprotein Thioredoxin Reductase 1 (TrxR1): qHTS; details: recombinant rTrxR1, NADPH fluorescence consumption, selenite substrate; series mostly up to 114 µM; also: nearly all actives have a fitted effect of over 65% in size
Hit rate of the full screen: of about 390,000 compounds, about 4,000 (1%) were called active. Inconclusive results (about 4%) are left out. Calls follow the shape of the dose curve; as a rule, active = well fitted inhibition curve with a large enough effect; inconclusive = small, poorly fitted or top-dose-only effect; inactive = no such curve, though single readings can be large or run the other way. The entries come from a sample that favours actives as a whole.
Respond using exactly one of the listed classes: Yes = active, No = inactive

Request: Please let me know the test result on file for `Cc1ccc(CNC(=O)CCNS(=O)(=O)c2ccc3c(c2)oc(=O)n3C)cc1` .
Result: No

Request: Please let me know the test result on file for `CN(C)/C=C1/Nc2ccccc2C1=O` .
Result: Yes

Request: Please let me know the test result on file for `Cc1ccc2ccc3c(c2n1)NS(=O)(=O)c1ccccc1-3` .
Result: No

Request: Please let me know the test result on file for `CCOc1ccc(NCCC(=O)c2ccc3c(c2)OCO3)cc1` .
Result: Yes

Request: Please let me know the test result on file for Cc1ccc(C(=O)CC2(O)C(=O)N(CCc3ccccc3)c3ccc(Br)cc32)cc1 (stereo not given) .
Result: No

Request: Please let me know the test result on file for `O=C(CCc1nc(CN2CCN(S(=O)(=O)c3ccc(Br)cc3)CC2)no1)N1CCCCC1` .
Result: No

Request: Please let me know the test result on file for `O=C(Nc1cccc(-c2nc3ccccc3o2)c1)c1cccc(Br)c1` .
Result: No

Request: Please let me know the test result on file for `Clc1ccccc1CSc1nncn2c1cc1occc12` .
Result: No

Request: Please let me know the test result on file for `Cc1ccc2ncc(C(=O)Nc3ccc(OC(F)(F)F)cc3)c(=O)n2c1` .
Result: No

Request: Please let me know the test result on file for `CCOc1ccc(NC(=O)Cn2c(=O)n(CCCC(=O)NCc3ccc4c(c3)OCO4)c(=O)c3ccccc32)cc1` .
Result: No

====

target: Thioredoxin reductase 1, cytoplasmic (Rattus norvegicus) (UniProt O89049); test: qHTS Assay for Inhibitors of Mammalian Selenoprotein Thioredoxin Reductase 1 (TrxR1): qHTS; conditions: recombinant rTrxR1, NADPH fluorescence consumption, selenite substrate; series mostly up to 114 µM; also: nearly all actives have a fitted effect of over 65% in size
Sequence (O89049 whole entry, looked up): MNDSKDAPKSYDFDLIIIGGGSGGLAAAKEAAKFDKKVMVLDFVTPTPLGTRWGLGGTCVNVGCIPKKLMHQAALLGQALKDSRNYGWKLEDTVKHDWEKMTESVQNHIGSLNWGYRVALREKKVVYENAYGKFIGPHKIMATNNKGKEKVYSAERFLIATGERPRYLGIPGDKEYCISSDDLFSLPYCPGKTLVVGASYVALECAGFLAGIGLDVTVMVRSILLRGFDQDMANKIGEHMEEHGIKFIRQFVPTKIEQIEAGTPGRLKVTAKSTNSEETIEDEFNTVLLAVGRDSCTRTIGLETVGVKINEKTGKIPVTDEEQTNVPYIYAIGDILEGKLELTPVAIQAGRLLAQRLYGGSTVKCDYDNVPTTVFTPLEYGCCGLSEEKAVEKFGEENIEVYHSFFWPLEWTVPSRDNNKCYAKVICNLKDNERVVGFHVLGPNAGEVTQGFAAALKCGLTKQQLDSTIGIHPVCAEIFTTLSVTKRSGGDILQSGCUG
The campaign covered roughly 390,000 compounds. About 4,000 (1%) were called active. About 4% were inconclusive and are not listed. Calls come from the whole dose curve; as a rule, active = well fitted inhibition curve with a large enough effect; inconclusive = small, poorly fitted or top-dose-only effect; inactive = no such curve, though single readings can be large or run the other way. The full list was thinned out, with actives kept by preference.
Respond using exactly one of the listed classes: true (1) = active, false (0) = inactive

Request: Please let me know the test result on file for `CCN1CCN(c2ccc(/C=C/c3ccnc4ccccc34)cc2)CC1` .
Result: false (0)

Request: Please let me know the test result on file for `Cn1c(=O)c2cn(-c3cccc4ccccc34)cc2n(C)c1=O` .
Result: false (0)

Request: Please let me know the test result on file for Cc1ccccc1N(C(=O)CNC(=O)c1cccs1)C(C(=O)NC1CCCC1)c1ccncc1 (configuration not stated) .
Result: false (0)

Request: Please let me know the test result on file for `O=S(=O)(c1ccccc1)c1nc(-c2ccc(Cl)cc2Cl)oc1N1CCCCC1` .
Result: false (0)

Request: Please let me know the test result on file for Cc1ccccc1C(CC(=O)c1cccs1)C(C#N)C#N (configuration not stated) .
Result: true (1)

Request: Please let me know the test result on file for `O=C(Nc1ccccc1C(F)(F)F)c1nc(S(=O)(=O)Cc2ccccc2F)ncc1Cl` .
Result: true (1)

Request: Please let me know the test result on file for `COc1ccc(-c2nc(S(=O)(=O)c3ccccc3)c(N3CCCCC3)o2)cc1` .
Result: false (0)

Request: Please let me know the test result on file for `CCOC(=O)CSc1nnc(-c2ccco2)n1C` .
Result: true (1)

Request: Please let me know the test result on file for `Cc1ccc(OCC(=O)Nc2cccc3c2CCCC3)cc1C` .
Result: false (0)

Request: Please let me know the test result on file for COc1ccccc1CNC(=O)C(Cc1ccccc1)NS(=O)(=O)c1ccc2c(c1)oc(=O)n2C (configuration not stated) .
Result: false (0)

Request: Please let me know the test result on file for `Cc1ccc(C)c(Cn2c(CCCNC(=O)C3CCCCC3)nc3ccccc32)c1` .
Result: false (0)

Request: Please let me know the test result on file for COc1cc(C2c3cc4c(cc3C(O)C3COC(=O)C23)OCO4)cc(OC)c1OC (configuration not stated) .
Result: false (0)

Request: Please let me know the test result on file for `COc1ccc(-c2nc3c(c(SCC(=O)Nc4ccc(C(=O)O)cc4)n2)Cc2ccccc2O3)cc1` .
Result: false (0)

Request: Please let me know the test result on file for `N#Cc1cc2[nH]c(=O)c(=O)[nH]c2cc1[N+](=O)[O-]` .
Result: false (0)

Request: Please let me know the test result on file for `CC(C)CNC(=S)NNC(=O)c1nn(C)cc1Cl` .
Result: false (0)

Request: Please let me know the test result on file for `O=C(Nc1nc2ccc(F)cc2s1)c1nc(SCc2ccccc2F)ncc1Cl` .
Result: false (0)

Request: Please let me know the test result on file for `Cc1ccc(SC(=O)COc2ccc(C)c(C)c2)cc1` .
Result: true (1)
